Molecular target: T1, MPP1, Q00013
T1 sequence (Q00013 66-162, limits assumed, looked up): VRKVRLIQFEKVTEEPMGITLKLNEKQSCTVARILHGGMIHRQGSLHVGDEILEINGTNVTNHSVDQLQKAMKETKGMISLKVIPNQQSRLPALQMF
Experiment: holdup assay
Parameters: key: below the threshold = too weak to quantify, mostly under pKd 3.1 to 4
Settings: plain residues with an end cap or a label only (N-terminal biotin on a linker: ttds)
// label = 1.0 if pKd is not less than 5, otherwise 0.0

{"binder": "SRSRRRETAL [HPV33-E6, P06427]", "cat": 0.0}
{"binder": "SHSSKGETAV [FZD7, O75084]", "cat": 0.0}
{"binder": "PPRQRSETQV [HPV82-E6, Q9IR59]", "cat": 1.0}
{"binder": "PSRDRKETSI [RALBP1, Q15311]", "cat": 0.0}
